Biological target: T1, human IL-18BP (human, UniProt O95998 31-194)
T1 construct: UniProt printed as 095998; also called hIL-18BP
T1 sequence: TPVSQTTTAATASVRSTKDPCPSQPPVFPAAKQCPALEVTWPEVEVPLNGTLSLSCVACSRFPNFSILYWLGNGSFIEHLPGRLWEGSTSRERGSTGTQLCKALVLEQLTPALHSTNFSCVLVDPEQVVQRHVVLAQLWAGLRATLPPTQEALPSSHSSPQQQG
Test: BLI, apparent KD
quantityKind: Kd (nM)
Supply the numeric figure in nM, leaving out any unit text.

Reported Kd, binder SA301a LC-Q89M (antibody, V domains shown) VH: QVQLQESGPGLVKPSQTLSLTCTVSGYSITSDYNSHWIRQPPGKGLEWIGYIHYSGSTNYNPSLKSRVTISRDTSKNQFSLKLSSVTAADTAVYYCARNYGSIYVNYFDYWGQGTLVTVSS VL: EIVLTQSPATLSLSPGERATLSCSASSSVSYMYWYQQKPGQAPRPLIYRTSNLASGIPARFSGSGSGTDFTLTISSLEPEDFAVYYCMQYHSYPTFGGGTKVEIK : ____
0.49

Any idea what its Kd is? The binder is SA301a LC-Q90G (antibody, name in Kabat numbering, V domains shown, IgG1 kappa) VH: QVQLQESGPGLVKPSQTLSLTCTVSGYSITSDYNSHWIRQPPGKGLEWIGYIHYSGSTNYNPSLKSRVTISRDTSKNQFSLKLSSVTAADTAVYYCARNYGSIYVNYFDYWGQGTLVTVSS VL: EIVLTQSPATLSLSPGERATLSCSASSSVSYMYWYQQKPGQAPRPLIYRTSNLASGIPARFSGSGSGTDFTLTISSLEPEDFAVYYCQGYHSYPTFGGGTKVEIK
0.78

Item under review: SA301a LC-S93I (antibody, V domains shown) VH: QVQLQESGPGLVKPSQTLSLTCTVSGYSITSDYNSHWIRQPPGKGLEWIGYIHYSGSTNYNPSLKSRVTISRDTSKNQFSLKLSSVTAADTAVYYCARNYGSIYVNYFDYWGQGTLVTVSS VL: EIVLTQSPATLSLSPGERATLSCSASSSVSYMYWYQQKPGQAPRPLIYRTSNLASGIPARFSGSGSGTDFTLTISSLEPEDFAVYYCQQYHIYPTFGGGTKVEIK . Reported Kd?
0.21
